- Test system: 435261-313-R-J1-PDC complex spheroid viability
- assay-notes: Anticancer human tumor 435261-313-R-J1-PDC patient-derived colon adenocarcinoma cell line growth inhibition [GQUAD]
- test-settings: second compound 0.1 µM; first compound 10 µM; hits give low values
Cut-off 60% on viability, T/C: below means t, at or above means f.

compound	discrete-label
O=C(c1cc(Cc2n[nH]c(=O)c3ccccc23)ccc1F)N1CCN(C(=O)C2CC2)CC1 + Cc1cnc(CNC(=O)c2c(=O)c3ccc(N4CCCN(C)CC4)nc3n3c2sc2ccccc23)cn1	f
Cc1cccc(N(C)C(=O)C2C(O)CCN2c2nc(C)cc(C(F)(F)F)c2C#N)c1 (stereo not given) + Cc1[nH]c2ccc(F)cc2c1-c1nc2c3cccnc3c3ncccc3c2[nH]1	f
CC1COCCN1c1cc(-c2ccnn2C)c2ccnc(-c3ccn[nH]3)c2n1 (stereo not given) + Cc1cnc(CNC(=O)c2c(=O)c3ccc(N4CCCN(C)CC4)nc3n3c2sc2ccccc23)cn1	t
CC(=O)O[C@H]1C(=O)[C@@]2(C)[C@H]([C@H](OC(=O)c3ccccc3)[C@]3(O)C[C@H](OC(=O)[C@H](O)[C@@H](NC(=O)c4ccccc4)c4ccccc4)C(C)=C1C3(C)C)[C@]1(OC(C)=O)CO[C@@H]1C[C@@H]2O + CN(C)c1ccc(Nc2c3ccc(NC(=O)CCN4CCCC4)cc3nc3cc(NC(=O)CCN4CCCC4)ccc23)cc1	f

---

viability, T/C reference
- Test system: 435261-313-R-J1-PDC complex spheroid viability
- assay-notes: Anticancer human tumor 435261-313-R-J1-PDC cell line growth inhibition [GQUAD];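 also: spheroids exposed to the agents for seven days before readout; percent of vehicle control viability with DMSO wells as 100%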
- test-settings: second compound 3.16 µM; first compound 0.0316 µM; hits give low values
measurement-type: viability, T/C (%)

compound	reported-measurement
C=CCn1c(=O)c2cnc(Nc3ccc(N4CCN(C)CC4)cc3)nc2n1-c1cccc(C(C)(C)O)n1 + Cc1cnc(CNC(=O)c2c(=O)c3ccc(N4CCCN(C)CC4)nc3n3c2sc2ccccc23)cn1	14
O=C(NO)c1cnc(N2CCN(S(=O)(=O)c3ccc4ccccc4c3)CC2)nc1 + Cc1[nH]c2ccc(F)cc2c1-c1nc2c3cccnc3c3ncccc3c2[nH]1	42.5
C=CC(=O)N1CCN(c2nc(=O)n(-c3c(C)ccnc3C(C)C)c3nc(-c4c(O)cccc4F)c(F)cc23)C(C)C1 (stereo not drawn) + CN(C)c1ccc(Nc2c3ccc(NC(=O)CCN4CCCC4)cc3nc3cc(NC(=O)CCN4CCCC4)ccc23)cc1	69.4

---

- Test system: 435261-313-R-J1-PDC complex spheroid viability
- assay-notes: Anticancer human tumor 435261-313-R-J1-PDC cell line growth inhibition [GQUAD];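 also: spheroids exposed to the agents for seven days before readout; percent of vehicle control viability with DMSO wells as 100%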
- test-settings: second compound 1 µM; first compound 0.1 µM; hits give low values

molecule	value-units	viability, T/C
CC(=O)O[C@H]1C(=O)[C@@]2(C)[C@H]([C@H](OC(=O)c3ccccc3)[C@]3(O)C[C@H](OC(=O)[C@H](O)[C@@H](NC(=O)c4ccccc4)c4ccccc4)C(C)=C1C3(C)C)[C@]1(OC(C)=O)CO[C@@H]1C[C@@H]2O + CN(C)c1ccc(Nc2c3ccc(NC(=O)CCN4CCCC4)cc3nc3cc(NC(=O)CCN4CCCC4)ccc23)cc1	%	61.5
C=CC(=O)N1CCN(c2nc(=O)n(-c3c(C)ccnc3C(C)C)c3nc(-c4c(O)cccc4F)c(F)cc23)C(C)C1 (configuration not stated) + Cc1[nH]c2ccc(F)cc2c1-c1nc2c3cccnc3c3ncccc3c2[nH]1	%	84

---

Consider the following compounds and their measured viability, T/C readings.
- System: 435261-313-R-J1-PDC complex spheroid viability
- assay-notes: Anticancer human tumor 435261-313-R-J1-PDC cell line growth inhibition [GQUAD];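 also: spheroids exposed to the agents for seven days before readout; percent of vehicle control viability with DMSO wells as 100%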
- test-settings: second compound 1 µM; first compound 0.1 µM; hits give low values
measurement-type: viability, T/C (%)

compound	reported-measurement
CC1COCCN1c1cc(C2(O)CC3CCC(C2)O3)c2cnn(-c3ccn[nH]3)c2n1 (stereo unspecified) + CN(C)c1ccc(Nc2c3ccc(NC(=O)CCN4CCCC4)cc3nc3cc(NC(=O)CCN4CCCC4)ccc23)cc1	64.5
CC1COCCN1c1cc(C2(S(C)(=N)=O)CC2)nc(-c2ccnc3[nH]ccc23)n1 (stereo unspecified) + Cc1cnc(CNC(=O)c2c(=O)c3ccc(N4CCCN(C)CC4)nc3n3c2sc2ccccc23)cn1	37.9
COc1ncnc(C2CC2)c1-c1ncc2cnn(Cc3ccc(-c4nc(C(F)(F)F)cn4C(C)C)cc3)c2n1 + Cc1cnc(CNC(=O)c2c(=O)c3ccc(N4CCCN(C)CC4)nc3n3c2sc2ccccc23)cn1	40.8
O=c1[nH]cc(F)c(=O)[nH]1 + CN(C)c1ccc(Nc2c3ccc(NC(=O)CCN4CCCC4)cc3nc3cc(NC(=O)CCN4CCCC4)ccc23)cc1	91.8
CC1COCCN1c1cc(-c2ccnn2C)c2ccnc(-c3ccn[nH]3)c2n1 (stereo unspecified) + CN(C)c1ccc(Nc2c3ccc(NC(=O)CCN4CCCC4)cc3nc3cc(NC(=O)CCN4CCCC4)ccc23)cc1	69.5
O=C(c1cc(Cc2n[nH]c(=O)c3ccccc23)ccc1F)N1CCN(C(=O)C2CC2)CC1 + Cc1cnc(CNC(=O)c2c(=O)c3ccc(N4CCCN(C)CC4)nc3n3c2sc2ccccc23)cn1	45.9
Cc1cccc(N(C)C(=O)C2C(O)CCN2c2nc(C)cc(C(F)(F)F)c2C#N)c1 (stereo unspecified) + Cc1[nH]c2ccc(F)cc2c1-c1nc2c3cccnc3c3ncccc3c2[nH]1	86.7
CC(C)n1c(=O)n(C)c2cnc3cc(F)c(-c4ccc(OCCCN5CCCCC5)nc4)cc3c21 + Cc1cnc(CNC(=O)c2c(=O)c3ccc(N4CCCN(C)CC4)nc3n3c2sc2ccccc23)cn1	45.1
O=C(NO)c1cnc(N2CCN(S(=O)(=O)c3ccc4ccccc4c3)CC2)nc1 + Cc1[nH]c2ccc(F)cc2c1-c1nc2c3cccnc3c3ncccc3c2[nH]1	65.6
Nc1ccn(C2OC(CO)C(O)C2(F)F)c(=O)n1 (stereo unspecified) + Cc1[nH]c2ccc(F)cc2c1-c1nc2c3cccnc3c3ncccc3c2[nH]1	40.6
C#Cc1c(F)ccc2cc(O)cc(-c3ncc4c(N5CC6CCC(C5)N6)nc(OCC56CCCN5CC(F)C6)nc4c3F)c12 (stereo unspecified) + Cc1[nH]c2ccc(F)cc2c1-c1nc2c3cccnc3c3ncccc3c2[nH]1	55.1
CC(C)n1c(=O)n(C)c2cnc3cc(F)c(-c4ccc(OCCCN5CCCCC5)nc4)cc3c21 + CN(C)c1ccc(Nc2c3ccc(NC(=O)CCN4CCCC4)cc3nc3cc(NC(=O)CCN4CCCC4)ccc23)cc1	89.9
C#Cc1c(F)ccc2cc(O)cc(-c3ncc4c(N5CC6CCC(C5)N6)nc(OCC56CCCN5CC(F)C6)nc4c3F)c12 (stereo unspecified) + Cc1cnc(CNC(=O)c2c(=O)c3ccc(N4CCCN(C)CC4)nc3n3c2sc2ccccc23)cn1	34.4
CC(=O)O[C@H]1C(=O)[C@@]2(C)[C@H]([C@H](OC(=O)c3ccccc3)[C@]3(O)C[C@H](OC(=O)[C@H](O)[C@@H](NC(=O)c4ccccc4)c4ccccc4)C(C)=C1C3(C)C)[C@]1(OC(C)=O)CO[C@@H]1C[C@@H]2O + Cc1[nH]c2ccc(F)cc2c1-c1nc2c3cccnc3c3ncccc3c2[nH]1	48.1
COc1cc(C2c3cc4c(cc3C(OC3OC5COC(C)OC5C(O)C3O)C3COC(=O)C23)OCO4)cc(OC)c1O (stereo unspecified) + Cc1cnc(CNC(=O)c2c(=O)c3ccc(N4CCCN(C)CC4)nc3n3c2sc2ccccc23)cn1	38.1
C=CC(=O)N1CCN(c2nc(=O)n(-c3c(C)ccnc3C(C)C)c3nc(-c4c(O)cccc4F)c(F)cc23)C(C)C1 (stereo unspecified) + Cc1cnc(CNC(=O)c2c(=O)c3ccc(N4CCCN(C)CC4)nc3n3c2sc2ccccc23)cn1	39.1
C=CCn1c(=O)c2cnc(Nc3ccc(N4CCN(C)CC4)cc3)nc2n1-c1cccc(C(C)(C)O)n1 + Cc1cnc(CNC(=O)c2c(=O)c3ccc(N4CCCN(C)CC4)nc3n3c2sc2ccccc23)cn1	39.6
CCCS(=O)(=O)Nc1ccc(F)c(C(=O)c2c[nH]c3ncc(-c4ccc(Cl)cc4)cc23)c1F + Cc1[nH]c2ccc(F)cc2c1-c1nc2c3cccnc3c3ncccc3c2[nH]1	70
CC1COCCN1c1cc(-c2ccnn2C)c2ccnc(-c3ccn[nH]3)c2n1 (stereo unspecified) + Cc1cnc(CNC(=O)c2c(=O)c3ccc(N4CCCN(C)CC4)nc3n3c2sc2ccccc23)cn1	41.9
COc1cccc2c1C(=O)c1c(O)c3c(c(O)c1C2=O)CC(O)(C(=O)CO)CC3OC1CC(N)C(O)C(C)O1 (stereo unspecified) + Cc1cnc(CNC(=O)c2c(=O)c3ccc(N4CCCN(C)CC4)nc3n3c2sc2ccccc23)cn1	35.5
COc1ccc([C@@H](O)c2cc(-c3ncnc4cc(N5CCOCC5)ccc34)c(F)cc2Cl)nn1 + Cc1[nH]c2ccc(F)cc2c1-c1nc2c3cccnc3c3ncccc3c2[nH]1	65.3

Where do the numbers come from? From PubChem BioAssay AID2060494.
